target: Escherichia coli sliding clamp (bacterial processivity factor, dnaN gene product) (Escherichia coli), P0A988; test: ITC, 25 C
Sequence (P0A988 whole entry): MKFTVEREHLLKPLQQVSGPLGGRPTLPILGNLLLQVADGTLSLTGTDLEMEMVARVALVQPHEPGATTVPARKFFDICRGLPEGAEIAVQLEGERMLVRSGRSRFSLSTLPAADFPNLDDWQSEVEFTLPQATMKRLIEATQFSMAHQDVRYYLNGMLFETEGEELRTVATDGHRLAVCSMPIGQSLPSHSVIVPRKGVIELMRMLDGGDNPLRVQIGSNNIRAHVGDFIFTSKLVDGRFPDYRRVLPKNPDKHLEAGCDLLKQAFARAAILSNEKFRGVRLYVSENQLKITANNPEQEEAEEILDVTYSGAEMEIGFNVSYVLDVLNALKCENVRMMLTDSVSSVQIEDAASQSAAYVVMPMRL
Square brackets hold non-standard residues; d marks the D form. Cha = N[C@@H](CC1CCCCC1)C(=O)O
Measurement Label: pKd
A value of pKd is the negative decimal logarithm of a concentration given in moles per litre.

Recorded pKd for Ac-Q[Cha]DLF-OH [Ac-Gln-Cha-Asp-Leu-Phe-OH (peptide 1)] , please?
6.71

These data points were gathered from patent US20230312646A1.
